Each entry below carries its recorded Percent Effect.
System: Wolbachia pipientis
assay: Anti-Wolbachia Cell-Based Screen
Format: functional
Set-up: scale not given: in the data most compounds retested in dose-response had high values
condition notes: 5 µM
The campaign covered roughly 48,000 compounds. About 13,000 (27%) showed an effect of 50% or more. The list shows a part of the results.
A number alone suffices; assume %.

Some compounds with known Percent Effect results, for comparison:
compound: CCCSc1ncc(-c2nccn2CCC(N)=O)cn1
Percent Effect, %: -44.89
--
compound: CCOc1ccccc1C(=O)N1CCCC(O)(CN(C)C)C1 (configuration not stated)
Percent Effect, %: 8.806
--
compound: COc1ccccc1OC1CCN(C(=O)c2cccc(O)c2C)CC1
Percent Effect, %: 0.8848
--
compound: COc1cccc(OC)c1C(=O)N1CCN(c2ccccc2F)CC1
Percent Effect, %: -1.098
--
compound: COc1ccccc1C(=O)N1CC(=O)N(C2CCCCC2)CC(O)C1 (configuration not stated)
Percent Effect, %: 104.3

Which Percent Effect value belongs to CCc1nc(CN2CCCN(C(=O)C(C)n3ccnc3)CC2)cs1 (configuration not stated) ?
0.184

Quick check: Percent Effect of COCCNS(=O)(=O)c1ccc(Cl)c(C(=O)N(C)Cc2sccc2C)c1 ?
1.059

What measured Percent Effect goes with COc1ccc(C(=O)N2CC(=O)N(C3CCC3)CC(O)C2)cc1OC (configuration not stated) ?
103.9

Recorded Percent Effect for Cc1n[nH]c(C)c1-c1nccnc1CC1CCNC1 (configuration not stated) , please?
100.9

Quick one: Percent Effect of Cc1ccc(S(=O)(=O)N(C)c2ccsc2C(=O)NCC(C)C)cc1 ?
110.5

Requested field: Percent Effect. Item: COc1ccc(F)cc1C[S+]([O-])CC(=O)NCC(C)C (configuration not stated)
-12.33

// lookup Percent Effect for CC(C)Cc1nc(CN(C)CCOc2ccccc2F)no1
2.804
